conditions: bacteroides fragilis, 12 h, 2 µM
Description: The drug is tested on Bacteroides fragilis strain: 3397 (T10) for biotransformation. The drug concentrations were measured before and after a 12-h incubation by liquid-chromatography-coupled mass spectrometry (LC–MS)
experimental endpoint: Bacterial Biotransformation

Would you please look over these solved cases?
Q) Returns the measured Bacterial Biotransformation for the input compound. Input: CC(=O)OCC(=O)[C@@]1(OC(C)=O)[C@@H](C)C[C@H]2[C@@H]3C[C@H](F)C4=CC(=O)C=C[C@]4(C)[C@@]3(F)[C@@H](O)C[C@@]21C [DIFLORASONE DIACETATE]
A) Compound metabolized

Q) Returns the measured Bacterial Biotransformation for the input compound. Input: CSc1ccc2c(c1)C(N1CCN(C)CC1)Cc1ccccc1S2.O=C(O)/C=C\C(=O)O (stereo unspecified)
A) Compound NOT metabolized

Q) Returns the measured Bacterial Biotransformation for the input compound. Input: COc1cc(NC(C)CCCN)c2ncccc2c1.O=P(O)(O)O.O=P(O)(O)O (stereo unspecified) [PRIMAQUINE PHOSPHATE]
A) Compound metabolized

Q) Returns the measured Bacterial Biotransformation for the input compound. Input: `CCc1oc2ccccc2c1C(=O)c1cc(Br)c(O)c(Br)c1`
A) Compound NOT metabolized

Q) Returns the measured Bacterial Biotransformation for the input compound. Input: CNCCC(Oc1ccc(C(F)(F)F)cc1)c1ccccc1 (stereo unspecified)
A) Compound metabolized

Query compound follows.
Q) Returns the measured Bacterial Biotransformation for the input compound. Input: `COc1ccc2cc([C@H](C)C(=O)O)ccc2c1`
A) Compound NOT metabolized

###

details: bacteroides fragilis, 12 h, 2 µM
Description: The drug is tested on Bacteroides fragilis strain: DS-208 for biotransformation. The drug concentrations were measured before and after a 12-h incubation by liquid-chromatography-coupled mass spectrometry (LC–MS)
experimental endpoint: Bacterial Biotransformation

Q) Returns the measured Bacterial Biotransformation for the input compound. Input: CCc1nn(CCCN2CCN(c3cccc(Cl)c3)CC2)c(=O)n1CCOc1ccccc1 [NEFAZODONE]
A) Compound NOT metabolized

Q) Returns the measured Bacterial Biotransformation for the input compound. Input: NS(=O)(=O)c1cc2c(cc1Cl)N=C(CSCc1ccccc1)NS2(=O)=O [BENZTHIAZIDE]
A) Compound NOT metabolized

###

assay: The drug is tested on Clostridium asparagiforme strain: DSM15981 for biotransformation. The drug concentrations were measured before and after a 12-h incubation by liquid-chromatography-coupled mass spectrometry (LC–MS); type: ADME; parameters: dose 2 uM, timepoint 0 vs 12 hours; conditions: enterocloster asparagiformis, 2 µM
experimental endpoint: Bacterial Biotransformation

Would you please look over these solved cases?
Q) Returns the measured Bacterial Biotransformation for the input molecule. Input: O=C(O)c1cc(/N=N/c2ccc(S(=O)(=O)Nc3ccccn3)cc2)ccc1O [SULFASALAZINE]
A) Compound metabolized

Q) Returns the measured Bacterial Biotransformation for the input molecule. Input: Br.CN(C)CCCC1(c2ccc(F)cc2)OCc2cc(C#N)ccc21 (stereo not given) [CITALOPRAM HYDROBROMIDE]
A) Compound NOT metabolized

Q) Returns the measured Bacterial Biotransformation for the input molecule. Input: CC(C)NCC(O)COc1ccc(CC(N)=O)cc1 (stereo not given) [ATENOLOL]
A) Compound NOT metabolized

Q) Returns the measured Bacterial Biotransformation for the input molecule. Input: Cc1ccccc1N1C(=O)c2cc(S(N)(=O)=O)c(Cl)cc2NC1C (stereo not given) [METOLAZONE]
A) Compound NOT metabolized

Q) Returns the measured Bacterial Biotransformation for the input molecule. Input: CC#CCn1c(N2CCC[C@@H](N)C2)nc2c1c(=O)n(Cc1nc(C)c3ccccc3n1)c(=O)n2C [LINAGLIPTIN]
A) Compound NOT metabolized

---
Q) Returns the measured Bacterial Biotransformation for the input molecule. Input: COc1cc2nc(N3CCN(C(=O)C4CCCO4)CC3)nc(N)c2cc1OC (stereo not given) [TERAZOSIN]
A) Compound NOT metabolized

Q) Returns the measured Bacterial Biotransformation for the input molecule. Input: CNCCC(Oc1ccc(C(F)(F)F)cc1)c1ccccc1 (stereo not given) [FLUOXETINE]
A) Compound metabolized

Q) Returns the measured Bacterial Biotransformation for the input molecule. Input: CS(=O)(=O)O.OC(CCN1CCCCC1)(c1ccccc1)c1ccccc1 [PRIDINOL METHANESULFONATE]
A) Compound NOT metabolized

Q) Returns the measured Bacterial Biotransformation for the input molecule. Input: CNCC[C@H](Oc1cccc2ccccc12)c1cccs1 [DULOXETINE]
A) Compound NOT metabolized

Q) Returns the measured Bacterial Biotransformation for the input molecule. Input: COC(=O)[C@H]1[C@H]2C[C@@H]3c4[nH]c5cc(OC)ccc5c4CCN3C[C@H]2C[C@@H](OC(=O)c2cc(OC)c(OC)c(OC)c2)[C@@H]1OC [RESERPINE]
A) Compound NOT metabolized

###

experiment: The drug is tested on Bacteroides ovatus strain: ATCC8483 for biotransformation. The drug concentrations were measured before and after a 12-h incubation by liquid-chromatography-coupled mass spectrometry (LC–MS); conditions: 2 µM
experimental endpoint: Bacterial Biotransformation

Q) Returns the measured Bacterial Biotransformation for the input compound. Input: CC(C)(C)NC[C@H](O)COc1ccccc1C1CCCC1.CC(C)(C)NC[C@H](O)COc1ccccc1C1CCCC1.O=S(=O)(O)O [PENBUTOLOL SULFATE]
A) Compound NOT metabolized

Q) Returns the measured Bacterial Biotransformation for the input compound. Input: C[C@@H]1CC[C@H]2[C@@H](C)C(=O)O[C@@H]3O[C@@]4(C)CC[C@@H]1[C@]32OO4 [ARTEMISININ]
A) Compound metabolized

Q) Returns the measured Bacterial Biotransformation for the input compound. Input: C[C@@H](CO)NC(=O)[C@@H]1C=C2c3cccc4[nH]cc(c34)C[C@H]2N(C)C1.O=C(O)/C=C\C(=O)O [ERGONOVINE MALEATE]
A) Compound metabolized

Q) Returns the measured Bacterial Biotransformation for the input compound. Input: `CCCCC(=O)N(Cc1ccc(-c2ccccc2-c2nnn[nH]2)cc1)[C@H](C(=O)O)C(C)C`
A) Compound NOT metabolized

Q) Returns the measured Bacterial Biotransformation for the input compound. Input: COc1ccc2[nH]c([S+]([O-])Cc3ncc(C)c(OC)c3C)nc2c1 (stereo not drawn) [OMEPRAZOLE]
A) Compound metabolized

Q) Returns the measured Bacterial Biotransformation for the input compound. Input: CN1C(=O)CCS(=O)(=O)C1c1ccc(Cl)cc1 (stereo not drawn) [CHLORMEZANONE]
A) Compound NOT metabolized

Q) Returns the measured Bacterial Biotransformation for the input compound. Input: COc1ccc(C(CN(C)C)C2(O)CCCCC2)cc1 (stereo not drawn) [VENLAFAXINE]
A) Compound NOT metabolized

Query compound follows.
Q) Returns the measured Bacterial Biotransformation for the input compound. Input: CC(C)(C)NCC(O)COc1cccc2c1CC(O)C(O)C2 (stereo not drawn) [NADOLOL]
A) Compound NOT metabolized

###

settings: bacteroides fragilis, 12 h, 2 µM
experimental endpoint: Bacterial Biotransformation

Would you please look over these solved cases?
Q) Returns the measured Bacterial Biotransformation for the input compound. Input: CCCc1nn(C)c2c(=O)[nH]c(-c3cc(S(=O)(=O)N4CCN(C)CC4)ccc3OCC)nc12.O=C(O)CC(O)(CC(=O)O)C(=O)O [SILDENAFIL CITRATE]
A) Compound NOT metabolized

Q) Returns the measured Bacterial Biotransformation for the input compound. Input: CN1CCC(=C2c3ccccc3CC(=O)c3sccc32)CC1.O=C(O)/C=C/C(=O)O [KETOTIFEN FUMARATE]
A) Compound NOT metabolized

Q) Returns the measured Bacterial Biotransformation for the input compound. Input: O=C(O[C@H]1C[C@H]2CC[C@@H](C1)[N+]21CCCC1)C(O)(c1ccccc1)c1ccccc1.[Cl-] [TROSPIUM CHLORIDE]
A) Compound NOT metabolized

Q) Returns the measured Bacterial Biotransformation for the input compound. Input: `Nc1nc2ccc(OC(F)(F)F)cc2s1`
A) Compound metabolized

Q) Returns the measured Bacterial Biotransformation for the input compound. Input: COc1cc2nc(N(C)CCCNC(=O)C3CCCO3)nc(N)c2cc1OC (centres undefined)
A) Compound NOT metabolized

---
Q) Returns the measured Bacterial Biotransformation for the input compound. Input: CCN(CC)CCNC(=O)c1ccc(NC(C)=O)cc1 [ACECAINIDE]
A) Compound NOT metabolized

Q) Returns the measured Bacterial Biotransformation for the input compound. Input: C[C@@H](CO)NC(=O)[C@@H]1C=C2c3cccc4[nH]cc(c34)C[C@H]2N(C)C1.O=C(O)/C=C\C(=O)O [ERGONOVINE MALEATE]
A) Compound metabolized

Q) Returns the measured Bacterial Biotransformation for the input compound. Input: CC12CC3CC(C)(C1)CC(N)(C3)C2 [MEMANTINE]
A) Compound NOT metabolized

Q) Returns the measured Bacterial Biotransformation for the input compound. Input: CC(=O)O[C@]1(C(C)=O)CC[C@H]2[C@@H]3C=C(C)C4=CC(=O)CC[C@]4(C)[C@H]3CC[C@@]21C [MEGESTROL ACETATE]
A) Compound metabolized

###

experiment: The drug is tested on Clostridium scindens strain: ATCC35704 for biotransformation. The drug concentrations were measured before and after a 12-h incubation by liquid-chromatography-coupled mass spectrometry (LC–MS); settings: 2 µM
experimental endpoint: Bacterial Biotransformation

Q) Returns the measured Bacterial Biotransformation for the input compound. Input: Clc1cccc(Cl)c1N=C1NCCN1 [CLONIDINE]
A) Compound NOT metabolized

Q) Returns the measured Bacterial Biotransformation for the input compound. Input: NS(=O)(=O)c1cc2c(cc1Cl)N=C(CSCc1ccccc1)NS2(=O)=O [BENZTHIAZIDE]
A) Compound NOT metabolized

Q) Returns the measured Bacterial Biotransformation for the input compound. Input: O=P(O)(O)O.c1ccc(CN(CC2=NCCN2)c2ccccc2)cc1 [ANTAZOLINE PHOSPHATE]
A) Compound NOT metabolized

This collection of values is drawn from ChEMBL document CHEMBL5303573.
